All values here come from ChEMBL document CHEMBL4417631.

Here, each record is paired with measured half-life at 20 µM data.
Assay: Half life in simulated intestinal fluid at 20 uM by LC-MS/MS analysis
Format: ADME
*1 amine or outer side, *2 acyl side, *3 side chain or, on linkers, in order; H or OH if unused. Where a SMILES comes first, the peptide text is derived from it. Bridges are numbered along the chain shown (N, C = ends). [ ]: non-standard residue; d: D form. Abu(4-yl) = O=C([C@H](CC[*:3])N[*:1])[*:2]; 2Nal = N[C@@H](Cc1ccc2ccccc2c1)C(=O)O; AEF = NCCOc1ccc(C[C@H](N)C(=O)O)cc1; αMeK = C[C@](N)(CCCCN)C(=O)O

- compound: "CC(=O)NCCCC[C@H](NC(=O)C(C)(C)NC(=O)[C@H](Cc1ccc2ccccc2c1)NC(=O)[C@H](Cc1ccc(OCCN)cc1)NC(=O)[C@@H](NC(=O)[C@H](CCC(N)=O)NC(=O)[C@H](Cc1c[nH]c2ccccc12)NC(=O)[C@@H](NC(=O)[C@H](CC(N)=O)NC(=O)[C@@H](NC(C)=O)C(C)(C)S)[C@@H](C)O)C(C)(C)S)C(=O)N[C@@H](CC(N)=O)C(=O)NCCC(N)=O"
  half-life at 20 µM: "> 360 min"
- compound: "CC(=O)NCCCC[C@H](NC(=O)[C@](C)(CCCCNC(C)=O)NC(=O)[C@H](Cc1ccc2ccccc2c1)NC(=O)[C@H](Cc1ccc(OCCNC(C)=O)cc1)NC(=O)[C@@H](NC(=O)[C@H](CCC(N)=O)NC(=O)[C@H](Cc1c[nH]c2ccccc12)NC(=O)[C@@H](NC(=O)[C@H](CCC(N)=O)NC(=O)[C@@H](NC(C)=O)C(C)(C)S)[C@@H](C)O)C(C)(C)S)C(=O)N[C@@H](CC(N)=O)C(=O)N[C@@H](CC(N)=O)C(N)=O"
  half-life at 20 µM: "> 360 min"
- compound: "CC(=O)NCCCC[C@H](NC(=O)C(C)(C)NC(=O)[C@H](Cc1ccc2ccccc2c1)NC(=O)[C@H](Cc1ccc(OCCN)cc1)NC(=O)[C@@H](NC(=O)[C@H](CCC(N)=O)NC(=O)[C@H](Cc1c[nH]c2ccccc12)NC(=O)[C@@H](NC(=O)[C@H](CC(N)=O)NC(=O)[C@@H](NC(C)=O)C(C)(C)S)[C@@H](C)O)C(C)(C)S)C(=O)N[C@@H](CC(N)=O)C(=O)N[C@@H](CCC(N)=O)C(N)=O"
  half-life at 20 µM: "> 360 min"
- compound: "CC(=O)N[C@H]1CCSC[C@@H](C(=O)N[C@@H](Cc2ccc(OCCN)cc2)C(=O)N[C@@H](Cc2ccc3ccccc3c2)C(=O)N[C@@](C)(CCCCN)C(=O)N[C@@H](CCC(=O)O)C(=O)N[C@@H](CC(N)=O)C(=O)NCC(N)=O)NC(=O)[C@H](CCC(N)=O)NC(=O)[C@H](Cc2c[nH]c3ccccc23)NC(=O)[C@H]([C@@H](C)O)NC(=O)[C@H](CCC(N)=O)NC1=O"
  half-life at 20 µM: "> 360 min"
- compound: "CC[C@](C)(NC(=O)[C@H](Cc1ccc2ccccc2c1)NC(=O)[C@H](Cc1ccc(OCCN)cc1)NC(=O)[C@@H]1CSCC[C@H](NC(C)=O)C(=O)N[C@@H](CCC(N)=O)C(=O)N[C@@H]([C@@H](C)O)C(=O)N[C@@H](Cc2c[nH]c3ccccc23)C(=O)N[C@@H](CCC(N)=O)C(=O)N1)C(=O)N[C@@H](CCCCNC(C)=O)C(=O)N[C@@H](CC(N)=O)C(=O)NCC(N)=O"
  half-life at 20 µM: "60 to 120 min"

Looking up `CC(=O)NCCOc1ccc(C[C@H](NC(=O)[C@@H](NC(=O)[C@H](CCC(N)=O)NC(=O)[C@H](Cc2c[nH]c3ccccc23)NC(=O)[C@@H](NC(=O)[C@H](CCC(N)=O)NC(=O)[C@@H](NC(C)=O)C(C)(C)S)[C@@H](C)O)C(C)(C)S)C(=O)N[C@@H](Cc2ccc3ccccc3c2)C(=O)NC(C)(C)C(=O)N[C@@H](CCC(=O)O)C(=O)N[C@@H](CC(N)=O)C(=O)N[C@@H](CC(N)=O)C(N)=O)cc1` , I found its half-life at 20 µM recorded as > 360 min

Input `COc1ccc(C[C@H](NC(=O)[C@@H]2CSCC[C@H](NC(C)=O)C(=O)N[C@@H](CCC(N)=O)C(=O)N[C@@H]([C@@H](C)O)C(=O)N[C@@H](Cc3c[nH]c4ccccc34)C(=O)N[C@@H](CCC(N)=O)C(=O)N2)C(=O)N[C@@H](Cc2ccc3ccccc3c2)C(=O)N[C@@](C)(CCCN)C(=O)N[C@@H](CCCCNC(C)=O)C(=O)N[C@@H](CC(N)=O)C(=O)NCC(N)=O)cc1` . Output half-life at 20 µM: 120 to 180 min

Record CC(=O)N[C@@H](CC(C)C)C(=O)N[C@H]1CCSC[C@@H](C(=O)N[C@@H](Cc2ccc(OCCN)cc2)C(=O)N[C@@H](Cc2ccc3ccccc3c2)C(=O)N[C@@](C)(CCCCN)C(=O)N[C@@H](CCC(=O)O)C(=O)N[C@@H](CC(N)=O)C(=O)N[C@@H](CC(N)=O)C(N)=O)NC(=O)[C@H](CCC(N)=O)NC(=O)[C@H](Cc2c[nH]c3ccccc23)NC(=O)[C@H]([C@@H](C)O)NC(=O)[C@H](CCC(N)=O)NC1=O (Ac-L[Abu(4-yl)]QTWQC[AEF][2Nal][αMeK]ENN-NH2; thioether 2-7) , field half-life at 20 µM: > 360 min

GET /value?item= `CC(=O)N[C@H]1CCSC[C@@H](C(=O)N[C@@H](Cc2ccc(OCCN)cc2)C(=O)N[C@@H](Cc2c[nH]c3ccccc23)C(=O)N[C@@H](CCCN)C(=O)N[C@@H](CCC(=O)O)C(=O)N[C@@H](CC(N)=O)C(=O)NCC(N)=O)NC(=O)[C@H](CCC(N)=O)NC(=O)[C@H](Cc2c[nH]c3ccccc23)NC(=O)[C@H]([C@@H](C)O)NC(=O)[C@H](CCC(N)=O)NC1=O` &field=half-life at 20 µM returns < 60 min

Form: compound = `COc1ccc(C[C@H](NC(=O)[C@@H]2CSCC[C@H](NC(C)=O)C(=O)N[C@@H](CCC(N)=O)C(=O)N[C@@H]([C@@H](C)O)C(=O)N[C@@H](Cc3c[nH]c4ccccc34)C(=O)N[C@@H](CCC(N)=O)C(=O)N2)C(=O)N[C@@H](Cc2ccc3ccccc3c2)C(=O)N[C@@H](CCCN)C(=O)N[C@@H](CCCCNC(C)=O)C(=O)N[C@@H](CC(N)=O)C(=O)NCC(N)=O)cc1` ; half-life at 20 µM = > 360 min
